Give Efficacy for every item shown.
Target under test: Gamma-aminobutyric acid receptor subunit alpha-6/beta-3/gamma-2 (Rattus norvegicus) (UniProt P18508+P30191+P63079)
Assay text: Positive allosteric modulation of rat recombinant GABAA alpha6beta3alpha6-gamma2beta3 receptor expressed in Xenopus laevis oocytes assessed as maximal efficacy at -80 mV holding potential at 300 nM in presence of GABA EC1 to 1.5 by two-electrode voltage-clamp assay
Type: cell-based
Study conditions: Oocyte, filed as positive allosteric modulator
Supply the numeric figure in %, leaving out any unit text.

Consider the molecule `COc1ccc(-n2nc3c4ccc(C)cc4[nH]cc-3c2=O)cc1` and give its measured Efficacy.
149

Consider the molecule `COc1ccc(-n2nc3c4ccc(Br)cc4[nH]cc-3c2=O)cc1` and give its measured Efficacy.
124

Consider the molecule `COc1ccc(-n2nc3c4ccc(C(F)(F)F)cc4[nH]cc-3c2=O)cc1` and give its measured Efficacy.
100

Consider the molecule `COc1ccc(-n2nc3c4ccc(F)cc4[nH]cc-3c2=O)cc1` and give its measured Efficacy.
118

Consider the molecule `COc1ccc(-n2nc3c4ccc(Cl)cc4[nH]cc-3c2=O)cc1` and give its measured Efficacy.
94

Consider the molecule `COc1ccc(-n2nc3c4ccccc4[nH]cc-3c2=O)cc1` and give its measured Efficacy.
63

Consider the molecule `COc1ccc(-n2nc3c4ccc(OC)cc4[nH]cc-3c2=O)cc1` and give its measured Efficacy.
143

Consider the molecule `COc1ccc(-n2nc3c4ccc(C(C)=O)cc4[nH]cc-3c2=O)cc1` and give its measured Efficacy.
67

Consider the molecule `CCc1ccc2c3nn(-c4ccc(OC)cc4)c(=O)c-3c[nH]c2c1` and give its measured Efficacy.
74

Consider the molecule `C#Cc1ccc2c3nn(-c4ccc(OC)cc4)c(=O)c-3c[nH]c2c1` and give its measured Efficacy.
98
